All figures here come from PubChem BioAssay (NCI).

tested on: HL-60(TB) leukemia; assay: NCI tumour cell line growth inhibition, 48 h
Where a SMILES comes first, the peptide text is derived from it. Bridges are numbered along the chain shown (N, C = ends). [ ]: non-standard residue; d: D form. The star is where a group is joined. Cya = N[CH](CS(=O)(=O)O)C(=O)O; NMeF = CN[CH](Cc1ccccc1)C(=O)O; X49 = CC(C)CCCCCCCC(O)CC(=O)*; NMeV = CN[CH](C(=O)O)C(C)C; Boc = CC(C)(C)OC(=O)*; GABA = NCCCC(=O)O
Rule: YES for TGI not less than 8 µM, NO for anything less.

{"molecule": "Brc1ccc2c(C3CN[C@@H](c4c[nH]c5cc(Br)ccc45)CN3)c[nH]c2c1 (stereo partly drawn)", "class assignment": "NO"}
{"molecule": "O=C1OC(c2ccc(O)c(F)c2)(c2ccc(O)c(F)c2)c2cccc3cccc1c23", "class assignment": "YES"}
{"molecule": "CCCCCC(=O)n1[nH]c(=O)n(-c2ccc(OC)cc2)c1=O", "class assignment": "YES"}
{"molecule": "CCSc1nc2[nH]c(=S)[nH]c(=S)c2c(-c2ccc(OC)c(OC)c2)c1C#N", "class assignment": "YES"}
{"molecule": "ClCc1nn(-c2ccccc2)c(CCl)c1CCl", "class assignment": "NO"}
{"molecule": "COc1ccc2c(c1)SC1=NNC(Cl)C(=O)N12 (stereo not drawn)", "class assignment": "YES"}
{"molecule": "C=C1CC(Cn2cc(C)c(=O)[nH]c2=O)(c2ccc(Cl)cc2)OC1=O (stereo not drawn)", "class assignment": "NO"}
{"molecule": "CC(C)CC(N=Cc1nc(-c2ccccc2)oc1O)C(=O)O (stereo not drawn)", "class assignment": "YES"}
{"molecule": "O=C(N/N=C\\c1c(O)ccc2ccccc12)c1ccncc1", "class assignment": "NO"}
{"molecule": "COc1ccc(C(O)c2cc3c(N)c(C(=O)Nc4ccc(Br)cc4)sc3nc2C)cc1 (stereo not drawn)", "class assignment": "YES"}
{"molecule": "COc1ccc(NCc2cc(OC)cc(OC)c2)cc1", "class assignment": "YES"}
{"molecule": "Nc1nonc1-c1nc2cnccc2n1C1CCCCC1", "class assignment": "YES"}
{"molecule": "Clc1nc(Cl)c2ncn(CC#CCn3cnc4c(Cl)nc(Cl)nc43)c2n1", "class assignment": "YES"}
{"molecule": "CC(C)CCCCCCCC(O)CC(=O)NC(CS(=O)(=O)O)C(=O)NC(CC(C)C)C(=O)NCCCC(=O)NC(Cc1cnc[nH]1)C(=O)NC(C)C(=O)NC1C(=O)NC(C(C)O)C(=O)NC(Cc2cnc[nH]2)C(=O)NC(C)C(=O)NC(C(C)O)C(=O)OC1C (stereo not drawn) (X49-[Cya]L[GABA]HATTHAT; ester 6-C; configuration not given here)", "class assignment": "YES"}
{"molecule": "CC(C)C(NC(=O)OC(C)(C)C)C(=O)N(C)C(Cc1ccccc1)C(=O)N(C)C(C(=O)N(C)C(C(=O)O)C(C)C)C(C)C (stereo not drawn) (Boc-V[NMeF][NMeV][NMeV]-OH; configuration not given here)", "class assignment": "YES"}
{"molecule": "Cc1cc2c(cc1C)[n+]([O-])c(NCCCN(C)C)c(C#N)[n+]2[O-]", "class assignment": "YES"}
{"molecule": "COC(=O)Cc1c([C@H]2[C@H](CC(=O)OC)c3ccccc3N2C(=O)C(F)(F)F)[nH]c2ccccc12", "class assignment": "YES"}
{"molecule": "CCCCCCC[CH2][Sn]([Cl])([Cl])[CH2]CCCCCCC", "class assignment": "YES"}

----------
As an illustration, consider measured GI50 for compounds on NCI-H522 lung.
recorded endpoint: GI50

{"compound": "O=C1C=C(Nc2ccc([N+](=O)[O-])cc2)c2ccccc2C1=O", "recorded endpoint": "GI50", "reading": "2910 nM"}
{"compound": "C[C@]12CC[C@@H]3c4ccc(O)cc4CC[C@H]3[C@@H]1CC[C@@H]2NS(=O)(=O)c1cccc(OC(F)(F)F)c1", "recorded endpoint": "GI50", "reading": "2230 nM"}
{"compound": "C=C(CN1CCc2ccccc2C1)c1ccc(CCC(=O)Nc2ccccc2N)cc1", "recorded endpoint": "GI50", "reading": "16200 nM"}
{"compound": "CC(=O)Nc1cccc(C#Cc2cncnc2Nc2ccc(OCc3cccc(F)c3)c(Cl)c2)n1", "recorded endpoint": "GI50", "reading": "8250 nM"}
{"compound": "COc1ccc(C(O)c2cc3c(N)c(C(=O)Nc4ccc(Br)cc4)sc3nc2C)cc1 (configuration not stated)", "recorded endpoint": "GI50", "reading": "2620 nM"}
{"compound": "Clc1nc(Cl)c2ncn(CC#CCn3cnc4c(Cl)nc(Cl)nc43)c2n1", "recorded endpoint": "GI50", "reading": "1560 nM"}
{"compound": "CCCCCCC[CH2][Sn]([Cl])([Cl])[CH2]CCCCCCC", "recorded endpoint": "GI50", "reading": "2300 nM"}
{"compound": "CCCOC(=O)c1ccc2c(c1)[N+](=O)C(C(=O)c1ccccc1)=C(C(F)(F)F)[N+]2=O", "recorded endpoint": "GI50", "reading": "1800 nM"}
{"compound": "Cn1cc(C2=C(c3cn(C)c4ccc(OCc5ccccc5)cc34)C(=O)NC2=O)c2ccccc21", "recorded endpoint": "GI50", "reading": "> 25000 nM"}
{"compound": "COC(=O)c1ccc2[nH]c(O)c(C(=Nc3ccc(N(C)C(=O)CN4CCN(C)CC4)cc3)c3ccc(OC)cc3)c2c1", "recorded endpoint": "GI50", "reading": "1660 nM"}
{"compound": "NC1CCCCC1N.O=NN1CCCCCC1(P(=O)([O-])[O-])P(=O)([O-])[O-].[Na+].[Pt+2]", "recorded endpoint": "GI50", "reading": "> 100000 nM"}
{"compound": "C=C1C(=O)c2sccc2C(c2ccc(OC)c(OC)c2)C1COC(C)=O (configuration not stated)", "recorded endpoint": "GI50", "reading": "1130 nM"}

----------
TGI by entry:
test system: M14 melanoma; test: NCI tumour cell line growth inhibition, 48 h
recorded endpoint: TGI

{"compound": "O=C(C=P(c1ccccc1)(c1ccccc1)c1ccccc1)CC(=S)CC(=O)C=P(c1ccccc1)(c1ccccc1)c1ccccc1", "recorded endpoint": "TGI", "reading": "20.5 µM"}
{"compound": "Cc1ccc(/C=C2\\CN(C)CC3=C2NC(=S)NC3c2ccc(C)cc2)cc1 (stereo not given)", "recorded endpoint": "TGI", "reading": "> 100 µM"}
{"compound": "O=C1OC(c2ccc(O)c(F)c2)(c2ccc(O)c(F)c2)c2cccc3cccc1c23", "recorded endpoint": "TGI", "reading": "> 25 µM"}
{"compound": "CCOP(=O)(OCC)OC1c2[nH]ccc2-c2cc(C(=O)OC)[nH]c2C1OC (stereo not given)", "recorded endpoint": "TGI", "reading": "> 100 µM"}
{"compound": "COC1(C)OC[C@@]2(C)OC(C)C1(C)C2O[Si](C(C)C)(C(C)C)C(C)C (stereo not given in full)", "recorded endpoint": "TGI", "reading": "> 100 µM"}

----------
system: DLD-1 colon; assay: NCI tumour cell line growth inhibition, 48 h
recorded endpoint: TGI

{"molecule": "CNS(=O)(=O)NN(C)S(=O)(=O)c1ccc(OC)cc1", "reading": "> 100 µM"}
{"molecule": "CCCCCCC[CH2][Sn]([Cl])([Cl])[CH2]CCCCCCC", "reading": "17.6 µM"}
{"molecule": "CCc1ccccc1N1C(=O)C(=O)C(c2nc3ccccc3s2)C(=O)C1=O", "reading": "> 100 µM"}
{"molecule": "Brc1ccc2c(C3CN[C@@H](c4c[nH]c5cc(Br)ccc45)CN3)c[nH]c2c1 (stereo partly specified)", "reading": "12.8 µM"}
{"molecule": "O=C(C=P(c1ccccc1)(c1ccccc1)c1ccccc1)CC(=S)CC(=O)C=P(c1ccccc1)(c1ccccc1)c1ccccc1", "reading": "17.9 µM"}
{"molecule": "COC(=O)CCC(NC(=S)N/N=C(\\C)c1ccco1)C(=O)OC (stereo unspecified)", "reading": "> 100 µM"}
{"molecule": "COc1ccc2c3c([nH]c2c1CC=C(C)C)C(=O)C=C(C)C3=O", "reading": "> 25 µM"}
{"molecule": "C[C@]12CC[C@H](O)CC1=CC[C@@H]1C2CC[C@]2(C)NC(=O)C(C#N)CC12 (stereo partly specified)", "reading": "> 100 µM"}
{"molecule": "N#CC(C#N)=C(C(C#N)C#N)C(C#N)C#N", "reading": "> 100 µM"}
{"molecule": "CC1=CP(=O)(OC(C)C)CC(C)=C1Cl (stereo unspecified)", "reading": "> 100 µM"}
{"molecule": "Cn1cnc2[nH]c(=O)[nH]c(=S)c21", "reading": "> 100 µM"}
{"molecule": "CN(C)c1nc(N(C)C)sc(=O)n1", "reading": "> 100 µM"}
{"molecule": "C=C1CC(OC)(C(OC)C(=O)N(C)[C@H]2OCO[C@H]3C2O[C@H](C[C@@H](COC)OC)C(C)(C)C3OC)O[C@H](C)[C@@H]1C (stereo partly specified)", "reading": "70.4 µM"}
{"molecule": "CC(C)CC(N=Cc1nc(-c2ccccc2)oc1O)C(=O)O (stereo unspecified)", "reading": "> 100 µM"}
{"molecule": "O=C(CSc1nnc(Cc2ccccc2)o1)Nc1ccc(Cl)cc1Cl", "reading": "> 100 µM"}
{"molecule": "Nc1ccc(N)c2c1C(=O)c1ccccc1C2=O", "reading": "> 100 µM"}
